Quick list: inhibition per entry.
Target: Protein phosphatase methylesterase 1 (Homo sapiens)
Experiment: PME-1 inhibitor activity retest, confirmation, biochemical, fluorescence polarization, FP-Rh probe, triplicate (AID 2171);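 also: 0% = enzyme with DMSO and 100% = wells lacking PME-1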
Details: recombinant PME-1, FP-Rh probe fluorescence polarization; at 5.9 µM; stronger effect = higher value
Express your answer in %, writing the number without its unit.

Take a look at these entries with their results.
CCn1cc(C(=O)NCCCN2CCCC(C)C2)c(=O)c2cc(S(=O)(=O)N(C)C3CCCCC3)ccc21 (stereo not given)    45.2
Cc1cc(O)ccc1N=Cc1c(C(F)(F)F)[nH][nH]c1=O    12.2
O=C(O)c1cccc(-c2ccc(/C=N/Nc3ccc([N+](=O)[O-])cc3)o2)c1    31.7
O=[N+]([O-])c1ccc(-c2nc(-c3cccs3)c(-c3cccs3)[nH]2)cc1    21.5

// next item, inhibition requested
Qu. Can you look up the measured inhibition of O=C1[C@@H]2Cc3c([nH]c4ccccc34)C(c3ccccc3)N2C(=O)CN1C1CC1 (stereo not given in full) for me?
Ans. 5.42
